- assay target: recombinant mTOR (FLAG-tagged, residues 1362-2549) (Homo sapiens, UniProt P42345)
- Sequence (P42345 1362-2549): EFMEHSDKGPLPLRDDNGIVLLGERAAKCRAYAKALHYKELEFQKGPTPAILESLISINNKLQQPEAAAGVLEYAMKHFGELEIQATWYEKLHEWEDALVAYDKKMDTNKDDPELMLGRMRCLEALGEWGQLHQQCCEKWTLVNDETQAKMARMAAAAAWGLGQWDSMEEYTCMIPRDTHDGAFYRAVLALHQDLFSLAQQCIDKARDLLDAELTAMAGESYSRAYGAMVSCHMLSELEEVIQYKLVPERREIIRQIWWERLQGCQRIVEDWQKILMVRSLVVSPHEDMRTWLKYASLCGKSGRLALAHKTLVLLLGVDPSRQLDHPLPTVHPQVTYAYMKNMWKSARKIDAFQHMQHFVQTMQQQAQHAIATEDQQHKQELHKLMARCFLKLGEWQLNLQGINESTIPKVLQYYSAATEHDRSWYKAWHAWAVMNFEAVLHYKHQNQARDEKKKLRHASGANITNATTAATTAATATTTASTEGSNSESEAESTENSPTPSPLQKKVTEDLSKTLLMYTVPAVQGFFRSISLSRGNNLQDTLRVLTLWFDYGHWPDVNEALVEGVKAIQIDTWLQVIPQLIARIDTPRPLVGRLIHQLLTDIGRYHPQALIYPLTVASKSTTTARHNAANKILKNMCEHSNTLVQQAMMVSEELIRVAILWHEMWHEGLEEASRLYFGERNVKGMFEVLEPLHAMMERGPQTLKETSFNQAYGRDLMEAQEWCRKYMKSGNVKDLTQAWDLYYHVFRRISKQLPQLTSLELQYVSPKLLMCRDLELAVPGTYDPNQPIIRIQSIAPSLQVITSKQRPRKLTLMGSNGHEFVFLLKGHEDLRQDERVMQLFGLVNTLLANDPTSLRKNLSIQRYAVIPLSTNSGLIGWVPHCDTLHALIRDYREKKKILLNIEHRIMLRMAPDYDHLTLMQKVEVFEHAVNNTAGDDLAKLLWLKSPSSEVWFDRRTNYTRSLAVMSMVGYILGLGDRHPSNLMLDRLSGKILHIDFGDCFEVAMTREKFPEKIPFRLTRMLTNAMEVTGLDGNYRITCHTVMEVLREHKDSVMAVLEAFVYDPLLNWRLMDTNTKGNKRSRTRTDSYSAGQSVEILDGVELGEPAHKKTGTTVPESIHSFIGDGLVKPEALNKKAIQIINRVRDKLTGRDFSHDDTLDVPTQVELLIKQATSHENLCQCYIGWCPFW
- experiment notes: In vitro mTOR kinase assay (Test (a), AlphaScreen)
- experimental context: ATP 20 μM, read-out: Test (a): IC50 versus mTOR kinase
pIC50: −log10 of the molar value.
# cutoff 6 applies to pIC50; >= gives Fulfilled, < gives Not fulfilled

Some solved entries appear below for comparison.
compound: C[C@H]1COCCN1c1cc(C(C)(C)S(C)(=O)=O)nc(-c2cc(F)c(NC(=O)NC3CC3)c(F)c2)n1 [Example 24ad]
assay target: recombinant mTOR (FLAG-tagged, residues 1362-2549) (Homo sapiens, UniProt P42345)
group label: Fulfilled
//
compound: CNC(=O)Nc1c(F)cc(-c2nc(N3CCOC[C@@H]3C)cc(C(C)(C)S(C)(=O)=O)n2)cc1F [Example 24ab]
assay target: recombinant mTOR (FLAG-tagged, residues 1362-2549) (Homo sapiens, UniProt P42345)
group label: Fulfilled
//
compound: CS(=O)(=O)Cc1cc(N2CCOCC2)nc(-c2ccc(NC(=O)NC3CCOCC3)cc2)n1 [Example 45u]
assay target: recombinant mTOR (FLAG-tagged, residues 1362-2549) (Homo sapiens, UniProt P42345)
group label: Fulfilled
//
compound: CS(=O)(=O)Cc1cc(N2CCOCC2)nc(-c2ccc(NC(=O)NC3CC3)cc2)n1 [Example 8]
assay target: recombinant mTOR (FLAG-tagged, residues 1362-2549) (Homo sapiens, UniProt P42345)
group label: Fulfilled
//
compound: CCNC(=O)Nc1c(F)cc(-c2nc(N3CCOC[C@@H]3C)cc(C(C)(C)S(C)(=O)=O)n2)cc1F [Example 24ac]
assay target: recombinant mTOR (FLAG-tagged, residues 1362-2549) (Homo sapiens, UniProt P42345)
group label: Fulfilled

Determine whether measured pIC50 meets or exceeds 6 for CC(C)NC(=O)Nc1ccc(-c2nc(CS(C)(=O)=O)cc(N3CCOC[C@@H]3C)n2)cc1 [Example 1c] Fulfilled

Determine whether measured pIC50 meets or exceeds 6 for C[C@H]1COCCN1c1cc(COc2ccccc2)nc(-c2ccc(NC(=O)Nc3ccccc3)cc2)n1 [Example 28] Not fulfilled

Determine whether measured pIC50 meets or exceeds 6 for CN1CCC(NC(=O)Nc2ccc(-c3nc(CS(=O)(=O)c4ccccc4)cc(N4CCOCC4)n3)cc2)CC1 [Example 20d] Not fulfilled

Determine whether measured pIC50 meets or exceeds 6 for CNC(=O)Nc1ncc(-c2nc(N3CCOC[C@@H]3C)cc(C(C)(C)S(C)(=O)=O)n2)cn1 [Example 24bh] Fulfilled

Determine whether measured pIC50 meets or exceeds 6 for CNC(=O)Nc1ccc(-c2nc(CS(=O)(=O)c3ccccc3OC)cc(N3CCOC[C@@H]3C)n2)cc1 [Example 33b] Fulfilled

Determine whether measured pIC50 meets or exceeds 6 for CC(C)(c1cc(N2CCOCC2)nc(-c2ccc(NC(=O)NC3CC3)cc2)n1)S(C)(=O)=O [Example 21b] Fulfilled

Determine whether measured pIC50 meets or exceeds 6 for CS(=O)(=O)Cc1cc(N2CCOCC2)nc(-c2ccc(NC(=O)N3CCCC3)cc2)n1 [Example 45f] Not fulfilled

Determine whether measured pIC50 meets or exceeds 6 for CC(C)S(=O)(=O)Cc1cc(N2CCOCC2)nc(-c2ccc(NC(=O)NC3CC3)cc2)n1 [Example 20m] Fulfilled

Determine whether measured pIC50 meets or exceeds 6 for C[C@H]1COCCN1c1cc(CS(C)(=O)=O)nc(-c2ccc(NC(=O)Nc3ccccc3)c(Cl)c2)n1 [Example 3b] Fulfilled

Determine whether measured pIC50 meets or exceeds 6 for C[C@H]1COCCN1c1cc(CS(C)(=O)=O)nc(-c2ccc(NC(=O)N(C)C)c(F)c2)n1 [Example 2f] Not fulfilled

Determine whether measured pIC50 meets or exceeds 6 for C[C@H]1COCCN1Cc1cc(N2CCOC[C@@H]2C)nc(-c2ccc(NC(=O)NC3CC3)cc2)n1 [Example 49l] Not fulfilled

====

Please respond with reported IC50 for every item in the list.
- assay target: recombinant mTOR (FLAG-tagged, residues 1362-2549) (Homo sapiens, UniProt P42345)
- experiment notes: In vitro mTOR kinase assay (Test (a), AlphaScreen)
- experimental context: ATP 20 μM, read-out: Test (a): IC50 versus mTOR kinase
Give the value; after it, write the unit.

Example entries and their recorded answers appear below.
compound: CC(CO)NC(=O)Nc1ccc(-c2nc(CS(C)(=O)=O)cc(N3CCOCC3)n2)cc1 (stereo not drawn) [Example 45t]
IC50: 82 nM
--
compound: C[C@H]1COCCN1c1cc(CNC(C)(C)CO)nc(-c2ccc(NC(=O)NC3CC3)cc2)n1 [Example 49i]
IC50: 16 nM
--
compound: CC(=O)NCCNC(=O)Nc1ccc(-c2nc(CS(C)(=O)=O)cc(N3CCOCC3)n2)cc1 [Example 8b]
IC50: 420 nM
--
compound: CNC(=O)Nc1ccc(-c2nc(CS(=O)(=O)c3ccccc3)cc(N3CCOCC3)n2)cc1 [Example 20]
IC50: 43 nM
--
compound: CS(=O)(=O)Cc1cc(N2CCOCC2)nc(-c2ccc(NC(=O)NCCO)cc2)n1 [Example 45k]
IC50: 49 nM

Give one value of IC50 per listed compound.
1. CC(=O)Nc1ccc(S(=O)(=O)Cc2cc(N3CCOC[C@@H]3C)nc(-c3ccc(NC(=O)NC4CC4)cc3)n2)cc1 [Example 43c]
2. CN(C)C(=O)CNC(=O)Nc1ccc(-c2nc(CS(C)(=O)=O)cc(N3CCOCC3)n2)cc1 [Example 45z]
3. COCCNC(=O)Nc1ccc(-c2nc(CS(=O)(=O)C(C)C)cc(N3CCOC[C@@H]3C)n2)cc1 [Example 20u]
4. Cc1ccc(NC(=O)Nc2ccc(-c3nc(CS(C)(=O)=O)cc(N4CCOCC4)n3)cc2)cc1 [Example 7a]
5. C[C@H]1COCCN1c1cc(CS(C)(=O)=O)nc(-c2cnc(NC(=O)Nc3ccccc3)s2)n1 [Example 46c]

["13 nM", "1000 nM", "270 nM", "280 nM", "450 nM"]

Give one value of IC50 per listed compound.
1. CNC(=O)Nc1ccc(-c2nc(CS(=O)(=O)c3ncc[nH]3)cc(N3CCOC[C@@H]3C)n2)cc1 [Example 33c]
2. C[C@H]1COCCN1c1cc(CS(C)(=O)=O)nc(-c2ccc(NC(=O)NCCCN(C)C)cc2)n1 [Example 35a]
3. C[C@H]1COCCN1c1cc(CS(=O)(=O)CCO)nc(-c2ccc(NC(=O)NC3CC3)cc2)n1 [Example 43d]
4. CCNC(=O)Nc1ccc(-c2nc(CS(C)(=O)=O)cc(N3CCOC[C@@H]3C)n2)cc1Cl [Example 8i]
5. CN(C)CCN(C)C(=O)Nc1ccc(-c2nc(CS(C)(=O)=O)cc(N3CCOCC3)n2)cc1 [Example 8c]

1.4 nM
6400 nM
11 nM
1400 nM
2200 nM

====

Please respond with reported IC50 for every item in the list.
- assay target: recombinant mTOR (FLAG-tagged, residues 1362-2549) (Homo sapiens)
- experiment notes: In vitro mTOR kinase assay (Test (a), AlphaScreen)
- experimental context: ATP 20 μM, read-out: Test (a): IC50 versus mTOR kinase
- Description: (a) In Vitro mTOR Kinase Assay Following expression in the mammalian HEK293 cell line, expressed protein was purified using the FLAG epitope tag using standard purification techniques. […] The resultant signals arising from laser light excitation at 680 nm were read using a Packard Envision instrument. […] mTOR enzyme inhibition for a given test compound was expressed as an IC50 value.
Numbers only, in nM.

Example entries and their recorded answers appear below.
molecule: Cc1nn(C)c(C)c1NC(=O)Nc1ccc(-c2nc(CS(C)(=O)=O)cc(N3CCOC[C@@H]3C)n2)cc1 [Example 22h]
assay target: recombinant mTOR (FLAG-tagged, residues 1362-2549) (Homo sapiens)
IC50 / nM: 1500

molecule: CS(=O)(=O)Cc1cc(N2CCOCC2)nc(-c2ccc(NC(=O)N3CCNC(=O)C3)cc2)n1 [Example 45v]
assay target: recombinant mTOR (FLAG-tagged, residues 1362-2549) (Homo sapiens)
IC50 / nM: 1200

molecule: CS(=O)(=O)Cc1cc(N2CCOCC2)nc(-c2ccc(NC(=O)Nc3cccs3)cc2)n1 [Example 7r]
assay target: recombinant mTOR (FLAG-tagged, residues 1362-2549) (Homo sapiens)
IC50 / nM: 190

molecule: COCCNC(=O)Nc1ccc(-c2nc(CS(=O)(=O)c3ccccc3)cc(N3CCOCC3)n2)cc1 [Example 20e]
assay target: recombinant mTOR (FLAG-tagged, residues 1362-2549) (Homo sapiens)
IC50 / nM: 2100

Give one value of IC50 per listed molecule.
1. CC(=O)NCCS(=O)(=O)Cc1cc(N2CCOC[C@@H]2C)nc(-c2ccc(NC(=O)Nc3ccccc3)cc2)n1 [Example 11]
2. C[C@H]1COCCN1c1cc(CS(C)(=O)=O)nc(-c2ccc(NC(=O)NCc3cccnc3)cc2)n1 [Example 24a]
3. C[C@H]1COCCN1c1cc(CS(C)(=O)=O)nc(-c2ccc(NC(=O)N(C)CCN(C)C)cc2)n1 [Example 35j]
4. C[C@H]1COCCN1c1cc(CS(=O)(=O)c2ccncc2)nc(-c2ccc(NC(=O)NCc3cnn(C)c3)cc2)n1 [Example 53c]

1: 140; 2: 82; 3: 3600; 4: 30
